Origin of values: paper PMC5602130

Here the recorded Tmax is given for each entry.
test: Food-effect two-period crossover trial: plasma pharmacokinetics after a single 200 mg oral dose of Ginsenoside CK Tablets; assay type: in vivo, human; conditions: female, human, plasma, po, 200 mg, median (range); single oral 200 mg CK; FO
// note: answer is a bare numeric in h

>>> value_measured("CC(C)=CCCC(C)(OC1OC(CO)C(O)C(O)C1O)C1CCC2(C)C1C(O)CC1C3(C)CCC(O)C(C)(C)C3CCC12C (centres unmarked) [CK]")
3.8

Now look at this entry.
Form: molecule = CC(C)=CCC[C@](C)(O)C1CC[C@]2(C)C1[C@H](O)CC1[C@@]3(C)CC[C@H](O)C(C)(C)C3CC[C@]12C (stereo partly drawn) [20(S)-PPD, 20(S)-protopanaxadiol] ; Tmax = 26

----------
Here the recorded half-life is given for each entry.
experiment: Food-effect two-period crossover trial: plasma pharmacokinetics after a single 200 mg oral dose of Ginsenoside CK Tablets; type: in vivo, human; details: male, human, plasma, po, 200 mg, plasma; single oral 200 mg CK; FO, male; read-out: t1/2 (converted)
// note: answer is a bare numeric in h

Form: molecule = CC(C)=CCC[C@](C)(O)C1CC[C@]2(C)C1[C@H](O)CC1[C@@]3(C)CC[C@H](O)C(C)(C)C3CC[C@]12C (stereo partly drawn) [20(S)-PPD, 20(S)-protopanaxadiol] ; half-life = 18.2

Form: molecule = CC(C)=CCCC(C)(OC1OC(CO)C(O)C(O)C1O)C1CCC2(C)C1C(O)CC1C3(C)CCC(O)C(C)(C)C3CCC12C (centres unmarked) ; half-life = 28.4

----------
test: Food-effect two-period crossover trial: plasma pharmacokinetics after a single 200 mg oral dose of Ginsenoside CK Tablets; assay type: in vivo, human; conditions: female, human, plasma, po, 200 mg, single oral 200 mg CK; FO
MEASUREMENT_TYPE: MRT last (h)
// note: answer is a bare numeric in h

>>> value_measured("CC(C)=CCCC(C)(OC1OC(CO)C(O)C(O)C1O)C1CCC2(C)C1C(O)CC1C3(C)CCC(O)C(C)(C)C3CCC12C (centres unmarked) [CK]")
11.6

Now look at this entry.
Form: compound = CC(C)=CCC[C@](C)(O)C1CC[C@]2(C)C1[C@H](O)CC1[C@@]3(C)CC[C@H](O)C(C)(C)C3CC[C@]12C (stereo partly drawn) [20(S)-PPD, 20(S)-protopanaxadiol] ; MRT last = 36.3

----------
assay: Food-effect two-period crossover trial: plasma pharmacokinetics after a single 200 mg oral dose of Ginsenoside CK Tablets; format: in vivo, human; settings: female, human, plasma, po, 200 mg; single oral 200 mg CK; FO
Here the recorded AUC(0-inf) is given for each entry.
// note: answer is a bare numeric in ng·h/mL

>>> value_measured("CC(C)=CCC[C@](C)(O)C1CC[C@]2(C)C1[C@H](O)CC1[C@@]3(C)CC[C@H](O)C(C)(C)C3CC[C@]12C (stereo partly drawn) [20(S)-PPD, 20(S)-protopanaxadiol]")
225

Now look at this entry.
Form: molecule = CC(C)=CCCC(C)(OC1OC(CO)C(O)C(O)C1O)C1CCC2(C)C1C(O)CC1C3(C)CCC(O)C(C)(C)C3CCC12C (centres unmarked) ; AUC(0-inf) = 6900
